# TARGET_ENTITY: hQ23 (HEK-293 cell line stably transfected with one of the members of the KCNQ family) (Homo sapiens, UniProt O43525+O43526)
# Construct: expressed in transfected cells; host or cells: HEK-293, stably transfected
# Sequence (O43526 whole entry): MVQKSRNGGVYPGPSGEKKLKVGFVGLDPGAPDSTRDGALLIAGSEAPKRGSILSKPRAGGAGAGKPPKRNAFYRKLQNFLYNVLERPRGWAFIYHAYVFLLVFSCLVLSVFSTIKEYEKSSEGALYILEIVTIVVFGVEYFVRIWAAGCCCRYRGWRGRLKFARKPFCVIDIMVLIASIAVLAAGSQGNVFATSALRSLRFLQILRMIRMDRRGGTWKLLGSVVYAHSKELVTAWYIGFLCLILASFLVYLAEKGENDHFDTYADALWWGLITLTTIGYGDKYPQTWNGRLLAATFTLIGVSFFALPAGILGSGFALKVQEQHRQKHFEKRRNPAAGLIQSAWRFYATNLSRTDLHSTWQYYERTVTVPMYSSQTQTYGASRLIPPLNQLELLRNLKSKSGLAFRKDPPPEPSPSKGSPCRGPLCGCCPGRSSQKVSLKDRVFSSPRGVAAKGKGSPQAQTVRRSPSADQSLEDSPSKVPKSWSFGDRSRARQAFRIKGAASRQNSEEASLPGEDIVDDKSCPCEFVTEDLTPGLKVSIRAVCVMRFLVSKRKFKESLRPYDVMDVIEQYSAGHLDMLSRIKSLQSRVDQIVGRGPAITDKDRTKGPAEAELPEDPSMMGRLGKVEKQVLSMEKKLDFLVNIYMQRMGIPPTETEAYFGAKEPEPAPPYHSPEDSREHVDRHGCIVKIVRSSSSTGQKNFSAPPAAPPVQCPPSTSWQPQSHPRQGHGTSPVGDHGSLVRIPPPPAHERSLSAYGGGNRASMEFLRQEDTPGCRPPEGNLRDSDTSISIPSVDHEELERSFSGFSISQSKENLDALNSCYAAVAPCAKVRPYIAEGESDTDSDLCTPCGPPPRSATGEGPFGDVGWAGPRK
# Sequence (O43525 whole entry): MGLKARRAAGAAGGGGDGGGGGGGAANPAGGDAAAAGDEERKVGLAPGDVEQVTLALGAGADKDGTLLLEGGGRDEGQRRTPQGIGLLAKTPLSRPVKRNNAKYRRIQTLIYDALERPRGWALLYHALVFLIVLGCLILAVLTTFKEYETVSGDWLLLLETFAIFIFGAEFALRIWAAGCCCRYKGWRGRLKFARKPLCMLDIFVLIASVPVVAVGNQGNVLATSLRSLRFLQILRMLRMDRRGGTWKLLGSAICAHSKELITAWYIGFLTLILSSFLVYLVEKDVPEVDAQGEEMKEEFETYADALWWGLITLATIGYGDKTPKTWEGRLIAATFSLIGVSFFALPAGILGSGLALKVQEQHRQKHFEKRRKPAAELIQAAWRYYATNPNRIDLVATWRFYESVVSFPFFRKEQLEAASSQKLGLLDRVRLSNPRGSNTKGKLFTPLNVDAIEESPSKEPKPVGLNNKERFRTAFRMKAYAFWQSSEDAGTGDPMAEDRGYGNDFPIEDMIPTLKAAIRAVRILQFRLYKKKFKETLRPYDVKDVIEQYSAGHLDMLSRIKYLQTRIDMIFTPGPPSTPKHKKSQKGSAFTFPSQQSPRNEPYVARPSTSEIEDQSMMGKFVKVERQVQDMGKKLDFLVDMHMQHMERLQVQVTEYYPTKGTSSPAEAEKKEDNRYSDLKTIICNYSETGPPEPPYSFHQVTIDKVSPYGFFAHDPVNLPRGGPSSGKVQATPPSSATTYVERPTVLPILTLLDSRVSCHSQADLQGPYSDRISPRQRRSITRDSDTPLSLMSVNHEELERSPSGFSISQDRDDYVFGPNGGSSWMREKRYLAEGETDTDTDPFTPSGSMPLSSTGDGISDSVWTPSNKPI
# EXPERIMENT: Thallium flux assay for KCNQ channel blockers (FLIPR, BTC dye)
# Format: cell-based
# CONDITION_DESCRIPTION: hQ23 cells, thallium flux
pEC50: −log10 of the molar value.
MEASURED_ENDPOINT: pEC50

{"columns": ["COMPOUND", "MEASURED_ENDPOINT", "ENDPOINT_RESULT"],
 "data": [
  ["CC(NC(=O)c1cnc(NC2CC2)nc1C1(c2ccc(Cl)cc2)CCCC1)c1cccc2ccccc12 (centres unmarked) [Example 157]", "pEC50", 6.71],
  ["CC1CCC(Nc2ncc(C(=O)NCc3ccc(Cl)c(Cl)c3)c(C3(c4ccccc4)CCCC3)n2)CC1 (centres unmarked) [Example 106]", "pEC50", 6.89],
  ["CN1CCC(N(C)c2ncc(C(=O)NCc3ccc(Cl)cc3Cl)c(C3(c4ccc(Cl)cc4)CCCC3)n2)CC1 [Example 182]", "pEC50", 7.17],
  ["CCN(C(=O)c1cnc(N2CCCC(C)C2)nc1C1(c2ccc(F)cc2)CCCC1)C1CCCCC1 (centres unmarked) [Example 214]", "pEC50", 6.24],
  ["CN1CCN(c2ncc(C(=O)N(C)Cc3ccccc3)c(C3(c4ccc(Cl)cc4)CCCC3)n2)CC1 [Example 139]", "pEC50", 7.15],
  ["O=C(NCc1ccc2c(c1)OCO2)c1cnc(N2CCCC2)nc1C1(c2ccc(Cl)cc2)CCCC1 [Example 152]", "pEC50", 6.97],
  ["CCN(CC)C(=O)c1cnc(NC2CCC(C)CC2)nc1C1(c2ccccc2)CCCC1 (centres unmarked) [Example 72]", "pEC50", 6.24],
  ["O=C(NCc1cccc2ccccc12)c1cnc(NC2CC2)nc1C1(c2ccc(Cl)cc2)CCCC1 [Example 165]", "pEC50", 6.20]
]}

###

# Lookup of reported EC50 keyed by entry
# TARGET_ENTITY: hQ23 (HEK-293 cell line stably transfected with one of the members of the KCNQ family) (Homo sapiens, UniProt O43525+O43526)
# Construct: expressed in transfected cells; host or cells: HEK-293, stably transfected
# EXPERIMENT: Thallium flux assay for KCNQ channel blockers (FLIPR, BTC dye)
# Assay type: cell-based
# CONDITION_DESCRIPTION: hQ23 cells, thallium flux

{"columns": ["COMPOUND", "UNIT_DESCRIPTOR", "EC50"],
 "data": [
  ["CC1CCN(c2ncc(C(=O)N3CCc4ccccc4C3)c(C3(c4ccccc4)CCCC3)n2)CC1", "nM", 191],
  ["O=C(NCc1ccc(Cl)cc1Cl)c1cnc(N2CCCC2)nc1C1(c2ccc(Cl)cc2)CCCC1", "nM", 74],
  ["CCC(C)Nc1ncc(C(=O)NC(C)c2ccc(F)cc2)c(C2(c3ccc(Cl)cc3)CCCC2)n1 (stereo not shown)", "nM", 911],
  ["CC1CCCN(c2ncc(C(=O)NC(C)c3cccc4ccccc34)c(C3(c4ccc(Cl)cc4)CCCC3)n2)C1 (stereo not shown)", "nM", 30],
  ["CN(Cc1ccccc1)C(=O)c1cnc(N2CCCC2)nc1C1(c2ccccc2)CCCC1", "nM", 778],
  ["O=C(NCc1cccc2ccccc12)c1cnc(NC2CC2)nc1C1(c2ccccc2)CCCC1", "nM", 669],
  ["CN1CCN(c2ncc(C(=O)NCc3ccc4c(c3)OCO4)c(C3(c4ccccc4)CCCC3)n2)CC1", "nM", 257],
  ["CCC(C)Nc1ncc(C(=O)N(C)CCc2ccccc2)c(C2(c3ccc(F)cc3)CCCC2)n1 (stereo not shown)", "nM", 675],
  ["O=C(c1cnc(NC2CCCC2)nc1C1(c2ccc(Cl)cc2)CCCC1)N1CCc2ccccc2C1", "nM", 535],
  ["CC1CCC(Nc2ncc(C(=O)NCc3ccc(F)cc3F)c(C3(c4ccccc4)CCCC3)n2)CC1 (stereo not shown)", "nM", 85],
  ["CC1CCCN(c2ncc(C(=O)N(C(C)C)C(C)C)c(C3(c4ccccc4)CCCC3)n2)C1 (stereo not shown)", "nM", 285],
  ["CC1CCCN(c2ncc(C(=O)NCc3cc(F)cc(C(F)(F)F)c3)c(C3(c4ccccc4)CCCC3)n2)C1 (stereo not shown)", "nM", 319],
  ["CCC(C)Nc1ncc(C(=O)NCc2cccc3ccccc23)c(C2(c3ccccc3)CCCC2)n1 (stereo not shown)", "nM", 604],
  ["CCC(C)Nc1ncc(C(=O)NCc2cccc3ccccc23)c(C2(c3ccc(Cl)cc3)CCCC2)n1 (stereo not shown)", "nM", 158],
  ["CC1CCN(c2ncc(C(=O)NCc3ccc(F)cc3F)c(C3(c4ccccc4)CCCC3)n2)CC1", "nM", 122],
  ["CCN(C)C(=O)c1cnc(N2CCCC(C)C2)nc1C1(c2ccccc2)CCCC1 (stereo not shown)", "nM", 605]
]}

###

# TARGET_ENTITY: hQ23 (HEK-293 cell line stably transfected with one of the members of the KCNQ family) (Homo sapiens, UniProt O43525+O43526)
# Construct: expressed in transfected cells; host or cells: HEK-293, stably transfected
# EXPERIMENT: Thallium flux assay for KCNQ channel blockers (FLIPR, BTC dye)
# Type: cell-based
# CONDITION_DESCRIPTION: Table 2; thallium flux, HEK-293
MEASURED_ENDPOINT: EC50

{"columns": ["COMPOUND", "MEASURED_ENDPOINT", "ENDPOINT_RESULT"],
 "data": [
  ["CC1CCC(Nc2ncc(C(=O)NC(C)c3ccc(F)cc3)c(C3(c4ccccc4)CC3)n2)CC1 (stereo not drawn)", "EC50", "575 nM"],
  ["CC1CCC(Nc2ncc(C(=O)NCc3cc(F)cc(C(F)(F)F)c3)c(C3(c4ccccc4)CC3)n2)CC1 (stereo not drawn)", "EC50", "44 nM"],
  ["CCN(C(=O)c1cnc(N2CCN(C)CC2)nc1C1(c2ccccc2)CC1)C1CCCCC1", "EC50", "470 nM"],
  ["CC1CCN(c2ncc(C(=O)NCc3cc(F)cc(C(F)(F)F)c3)c(C3(c4ccccc4)CC3)n2)CC1", "EC50", "297 nM"],
  ["CN1CCN(c2ncc(C(=O)NCc3cc(F)cc(C(F)(F)F)c3)c(C3(c4ccccc4)CC3)n2)CC1", "EC50", "384 nM"],
  ["CC1CCCN(c2ncc(C(=O)NC(C)c3ccc(F)cc3)c(C3(c4ccccc4)CC3)n2)C1 (stereo not drawn)", "EC50", "673 nM"],
  ["CC1CCN(c2ncc(C(=O)NC(C)c3ccc(F)cc3)c(C3(c4ccccc4)CC3)n2)CC1 (stereo not drawn)", "EC50", "672 nM"],
  ["CC1CCN(c2ncc(C(=O)NCc3cccc4ccccc34)c(C3(c4ccccc4)CC3)n2)CC1", "EC50", "381 nM"],
  ["CC1CCCN(c2ncc(C(=O)N3CCc4ccccc4C3)c(C3(c4ccccc4)CC3)n2)C1 (stereo not drawn)", "EC50", "945 nM"],
  ["CC1CCCN(c2ncc(C(=O)N[C@H](C)c3cccc4ccccc34)c(C3(c4ccccc4)CC3)n2)C1 (stereo partly drawn)", "EC50", "107 nM"],
  ["CCN(Cc1ccccc1)C(=O)c1cnc(NC2CCC(C)CC2)nc1C1(c2ccccc2)CC1 (stereo not drawn)", "EC50", "607 nM"],
  ["CC1CCN(c2ncc(C(=O)N[C@H](C)c3cccc4ccccc34)c(C3(c4ccccc4)CC3)n2)CC1", "EC50", "212 nM"],
  ["CC1CCC(Nc2ncc(C(=O)NCc3ccc(F)cc3F)c(C3(c4ccccc4)CC3)n2)CC1 (stereo not drawn)", "EC50", "413 nM"],
  ["CCN(Cc1ccccc1)C(=O)c1cnc(N2CCC(C)CC2)nc1C1(c2ccccc2)CC1", "EC50", "475 nM"],
  ["CC1CCCN(c2ncc(C(=O)NCc3cccc4ccccc34)c(C3(c4ccccc4)CC3)n2)C1 (stereo not drawn)", "EC50", "214 nM"]
]}

###

# TARGET_ENTITY: hQ23 (HEK-293 cell line stably transfected with one of the members of the KCNQ family) (Homo sapiens, UniProt O43525+O43526)
# Construct: expressed in transfected cells; host or cells: HEK-293, stably transfected
# EXPERIMENT: Thallium flux assay for KCNQ channel blockers (FLIPR, BTC dye)
# Type: cell-based
# CONDITION_DESCRIPTION: hQ23 cells, thallium flux
EC50 listing for selected compounds.

{"columns": ["COMPOUND", "EC50 (µM)"],
 "data": [
  ["O=C(NCc1ccc(F)cc1F)c1cnc(NC2CCCC2)nc1C1(c2ccccc2)CCCC1", 0.024],
  ["CN(C)CCNc1ncc(C(=O)NCc2cc(F)cc(C(F)(F)F)c2)c(C2(c3ccccc3)CCCC2)n1", 0.02],
  ["CN(CCc1ccccc1)C(=O)c1cnc(N2CCCC2)nc1C1(c2ccc(Cl)cc2)CCCC1", 0.169],
  ["CN(Cc1ccccc1)C(=O)c1cnc(NC2CCCC2)nc1C1(c2ccc(Cl)cc2)CCCC1", 0.183],
  ["CCC(C)Nc1ncc(C(=O)NCc2ccc(Cl)cc2Cl)c(C2(c3ccc(Cl)cc3)CCCC2)n1 (stereo not shown)", 0.01],
  ["CC1CCN(c2ncc(C(=O)N3CCCCC3)c(C3(c4ccccc4)CCCC3)n2)CC1", 0.164],
  ["CCN(C)C(=O)c1cnc(N2CCCC(C)C2)nc1C1(c2ccc(F)cc2)CCCC1 (stereo not shown)", 0.505],
  ["O=C(NCc1cc(F)cc(C(F)(F)F)c1)c1cnc(N2CCCC2)nc1C1(c2ccc(Cl)cc2)CCCC1", 0.032],
  ["CC1CCN(c2ncc(C(=O)NCc3ccc(C(F)(F)F)cc3)c(C3(c4ccc(Cl)cc4)CCCC3)n2)CC1", 0.032],
  ["CCN(Cc1ccccc1)C(=O)c1cnc(N2CCCC(C)C2)nc1C1(c2ccc(F)cc2)CCCC1 (stereo not shown)", 0.369],
  ["O=C(NCc1ccc(Cl)cc1Cl)c1cnc(NC2CCCC2)nc1C1(c2ccccc2)CCCC1", 0.136],
  ["CC1CCC(Nc2ncc(C(=O)NC(C)c3ccc(F)cc3)c(C3(c4ccccc4)CCCC3)n2)CC1 (stereo not shown)", 0.158],
  ["CN(CCc1ccccc1)C(=O)c1cnc(NC2CCCC2)nc1C1(c2ccc(Cl)cc2)CCCC1", 0.597],
  ["CCN(Cc1ccccc1)C(=O)c1cnc(NC2CCCC2)nc1C1(c2ccccc2)CCCC1", 0.926],
  ["O=C(NCc1cc(F)cc(C(F)(F)F)c1)c1cnc(NC2CCCC2)nc1C1(c2ccccc2)CCCC1", 0.875],
  ["O=C(NCc1cccc2ccccc12)c1cnc(NC2CCCC2)nc1C1(c2ccc(Cl)cc2)CCCC1", 0.373]
]}
